Test system: SK-MEL-28
Assay: NCI tumour cell line growth inhibition, 48 h
Activity calls are given as the source filed them. Rule as the data show it: active = GI50 up to about 1.1 µM and inactive = higher.
readout: GI50

> print(dat)
                                    compound  measurement.target       measured.value
 1  CC1C(OS(=O)(=O)c2ccc3nc(S)sc3c2)CC2C3(C)CCC2(C(C)C(=O)O)C(O)C13 (configuration not stated)           SK-MEL-28   26.8 µM (inactive)
 2               O=C(CCl)Nc1cc(Cl)c(Cl)cc1Cl           SK-MEL-28   2.32 µM (inactive)
 3  CC1=C(C(=O)O)N2C(=O)[C@@H](NC(=O)C(c3ccccc3)N3CSC(=S)N(C(C)C)C3)C2SC1 (some centres not stated)           SK-MEL-28     59 µM (inactive)
 4  COCCOC(=O)c1c(C)[n+]([O-])c2cc(Cl)c(Cl)cc2[n+]1[O-]           SK-MEL-28   28.4 µM (inactive)
 5  CC1=CC(=O)NP(=O)(Oc2ccc(Cl)cc2)N1 (configuration not stated)           SK-MEL-28  > 100 µM (inactive)
 6  Cc1cc2nc3c(C#N)c(-c4ccccc4)cc(Nc4cccc(C(F)(F)F)c4)n3c2cc1C           SK-MEL-28   9.02 µM (inactive)
 7  Nc1nc(Cl)cc(NCC2(CO)CC(OCc3ccccc3)C2)n1 (configuration not stated)           SK-MEL-28  > 100 µM (inactive)
 8           Oc1ccc2ccccc2c1/N=N/c1ccc(F)cc1           SK-MEL-28  > 100 µM (inactive)
 9  CCCCC1C=Cn2c(=O)oc3c(OC(C)C)c(OC(C)C)c(O)c1c32 (configuration not stated)           SK-MEL-28   13.6 µM (inactive)
10  CCOC(=O)c1c(SCCN2CCCC2)n(-c2ccccc2)c(=S)n(-c2ccccc2)c1=O           SK-MEL-28   2.75 µM (inactive)
11  CSc1nc2c(c(N(C)C)n1)C(O)n1c(nc3ccccc31)S2 (configuration not stated)           SK-MEL-28   46.2 µM (inactive)
12      Cc1cc(C(=O)NCCN(C)C)c2nc3ccccc3nc2c1           SK-MEL-28   5.05 µM (inactive)
13  O=C1OC(CCCN2CCCCC2)(c2ccccc2)CC12CCCC2 (configuration not stated)           SK-MEL-28   22.3 µM (inactive)
14  c1cc(-c2ccc(-c3ccc(-c4ccc(-c5ccncc5)o4)cc3)o2)ccn1           SK-MEL-28   21.2 µM (inactive)
15              c1ccc(CNc2nncc3[nH]cnc23)cc1           SK-MEL-28  > 100 µM (inactive)
16     O=C(/C=C/c1ccc(-c2ccccc2)cc1)c1ccccc1           SK-MEL-28   25.8 µM (inactive)
17  CC1=NN(c2cccc(Cl)c2)C2(C1=Cc1ccc(N(C)C)cc1)C(Cl)C(=O)N2c1nc2ccccc2s1 (configuration not stated)           SK-MEL-28  > 100 µM (inactive)
18  COC(=O)CNC(=O)c1cc(C)cc2c1Oc1c(cc(C)cc1C(=O)NCC(=O)OC)S2           SK-MEL-28   47.8 µM (inactive)
19   CCOC(=O)/C(C(=S)Nc1ccccc1)=C(/N)N1CCCC1           SK-MEL-28  > 100 µM (inactive)
20  COC(=O)c1c(C)cccc1C1CN=NC12Cc1ccc(C)c(C)c1C2=O (configuration not stated)           SK-MEL-28  > 100 µM (inactive)
21              CC(C)N1CSC(=S)N(Cc2ccccc2)C1           SK-MEL-28   3.78 µM (inactive)
22  FC(F)(F)c1nc2ccc(SSc3ccc4nc(C(F)(F)F)[nH]c4c3)cc2[nH]1           SK-MEL-28   > 10 µM (inactive)
